# target system: ABL1-nonphosphorylated (Homo sapiens)
# Construct: purchased Eurofins DiscoverX KINOMEscan (scanTK)
# experimental details: KINOMEscan ScanTK
# Assay type: binding
# particulars: @1000nM, read-out: %Control
# remaining binding at 1 µM listing for each entry below
Dear colleague, please return just the value in %, with no unit written.

molecule	unit abbreviation	remaining binding at 1 µM
COC(=O)c1cnc(S(C)(=O)=O)nc1N1CCCC(n2nc(-c3ccc(Oc4ccccc4)cc3)c3c(N)ncnc32)C1 (stereo not shown)	%	65
CCOC(=O)c1cnc(S(C)(=O)=O)nc1N1CCC[C@@H](n2nc(-c3ccc(Oc4ccccc4)cc3)c3c(N)ncnc32)C1	%	45
Cc1cnc(S(C)(=O)=O)nc1N1CCCC(n2nc(-c3ccc(Oc4ccccc4)cc3)c3c(N)ncnc32)C1 (stereo not shown)	%	47

Let us move to another entry and its remaining binding at 1 µM.
Note to self: remaining binding at 1 µM of CNC(=O)c1cnc(S(C)(=O)=O)nc1N1CCCC(n2nc(-c3ccc(Oc4ccccc4)cc3)c3c(N)ncnc32)C1 (stereo not shown) with ABL1-nonphosphorylated (Homo sapiens) was 33

###

# target system: ABL1(H396P)-phosphorylated (Homo sapiens, UniProt P00519, H396P)
# Construct: purchased Eurofins DiscoverX KINOMEscan (scanTK)
# experimental details: KINOMEscan ScanTK
# Format: binding
# particulars: read-out: %Control @1000nM
Strictly below 80% in remaining binding at 1 µM: met. Otherwise: not met.

As a guide, the following entries are already answered.
compound	cat
CCOC(=O)c1cnc(S(C)(=O)=O)nc1N1CCC[C@@H](n2nc(-c3ccc(Oc4ccccc4)cc3)c3c(N)ncnc32)C1 [Compound 8c]	met
COC(=O)c1cnc(S(C)(=O)=O)nc1N1CCCC(n2nc(-c3ccc(Oc4ccccc4)cc3)c3c(N)ncnc32)C1 (centres unmarked) [Compound 8b]	not met

Now consider the entry below.
For Cc1cnc(S(C)(=O)=O)nc1N1CCCC(n2nc(-c3ccc(Oc4ccccc4)cc3)c3c(N)ncnc32)C1 (centres unmarked) [Compound 8a] , is the recorded remaining binding at 1 µM below the cut-off of 80%?
not met

###

# target system: EPHB3 (Homo sapiens)
# Construct: purchased Eurofins DiscoverX KINOMEscan (scanTK)
# Sequence (P54753 34-998): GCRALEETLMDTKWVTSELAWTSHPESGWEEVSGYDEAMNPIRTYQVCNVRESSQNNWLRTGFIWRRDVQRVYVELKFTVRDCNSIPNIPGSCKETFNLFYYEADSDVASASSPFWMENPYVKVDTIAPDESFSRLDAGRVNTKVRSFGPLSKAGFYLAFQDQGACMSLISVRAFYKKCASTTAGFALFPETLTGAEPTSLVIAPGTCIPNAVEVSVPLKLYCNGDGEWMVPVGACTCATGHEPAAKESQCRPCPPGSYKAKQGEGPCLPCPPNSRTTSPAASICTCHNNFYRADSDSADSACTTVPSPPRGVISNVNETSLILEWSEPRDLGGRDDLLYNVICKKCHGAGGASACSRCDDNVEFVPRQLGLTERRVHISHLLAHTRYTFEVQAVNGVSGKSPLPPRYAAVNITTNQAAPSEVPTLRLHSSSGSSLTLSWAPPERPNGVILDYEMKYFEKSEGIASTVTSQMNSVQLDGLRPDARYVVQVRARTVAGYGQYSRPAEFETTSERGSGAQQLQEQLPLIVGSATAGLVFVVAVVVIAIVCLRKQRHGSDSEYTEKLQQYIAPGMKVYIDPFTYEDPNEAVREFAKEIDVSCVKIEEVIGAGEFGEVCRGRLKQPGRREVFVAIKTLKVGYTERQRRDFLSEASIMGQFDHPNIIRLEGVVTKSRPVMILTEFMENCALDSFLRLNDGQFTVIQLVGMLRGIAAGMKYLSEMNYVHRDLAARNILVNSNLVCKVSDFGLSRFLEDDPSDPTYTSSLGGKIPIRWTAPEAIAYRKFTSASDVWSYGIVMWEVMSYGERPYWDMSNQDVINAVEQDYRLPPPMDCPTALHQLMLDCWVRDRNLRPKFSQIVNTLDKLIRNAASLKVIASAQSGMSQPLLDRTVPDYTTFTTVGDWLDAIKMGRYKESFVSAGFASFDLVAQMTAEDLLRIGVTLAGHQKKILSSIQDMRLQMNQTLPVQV
# experimental details: KINOMEscan ScanTK
# Assay type: binding
# particulars: @1000nM
metric: difference in %Control versus compound Ib at 1 µM (%)
Dear colleague, please return just the value in %, with no unit written.

Below are worked cases with known answers.
compound	unit abbreviation	reported value
COC(=O)c1cnc(S(C)(=O)=O)nc1N1CCCC(n2nc(-c3ccc(Oc4ccccc4)cc3)c3c(N)ncnc32)C1 (stereo not shown)	%	-1
CCOC(=O)c1cnc(S(C)(=O)=O)nc1N1CCC[C@@H](n2nc(-c3ccc(Oc4ccccc4)cc3)c3c(N)ncnc32)C1	%	-20
CNC(=O)c1cnc(S(C)(=O)=O)nc1N1CCCC(n2nc(-c3ccc(Oc4ccccc4)cc3)c3c(N)ncnc32)C1 (stereo not shown)	%	2

Let us move to another entry and its difference in %Control versus compound Ib at 1 µM.
Per the records, this compound ( Cc1cnc(S(C)(=O)=O)nc1N1CCCC(n2nc(-c3ccc(Oc4ccccc4)cc3)c3c(N)ncnc32)C1 (stereo not shown) ) has difference in %Control versus compound Ib at 1 µM equal to 2

Reference source: paper PMC11345841
